PROTOCOL_DESCRIPTION: Biodistribution in BxPC3-luc tumor-bearing mice
Assay type: in vivo, BALB/c nu/nu mice
TEST_SETTINGS: female, BALB/c nu/nu, heart, iv, total radioactivity; 1 h, blocking: co-injection of IPLPPPRRPFFK 1 mg/mouse; read-out: Biodistribution, Heart
Where a SMILES comes first, the peptide text is derived from it. The star is where a group is joined. DOTA = O=C(O)CN1CCN(CC(=O)O)CCN(CC(=O)*)CCN(CC(=O)O)CC1; AEEA = NCCOCCOCC(=O)O

COMPOUND: CC[C@H](C)[C@H](NC(=O)COCCOCCNC(=O)CN1CCN(CC(=O)O)CCN(CC(=O)O)CCN(CC(=O)O)CC1)C(=O)N1CCC[C@H]1C(=O)N[C@@H](CC(C)C)C(=O)N1CCC[C@H]1C(=O)N1CCC[C@H]1C(=O)N1CCC[C@H]1C(=O)N[C@@H](CCCNC(=N)N)C(=O)N[C@@H](CCCNC(=N)N)C(=O)N1CCC[C@H]1C(=O)N[C@@H](Cc1ccccc1)C(=O)N[C@@H](Cc1ccccc1)C(=O)N[C@@H](CCCCN)C(=O)O [[^67Ga]27, [^67Ga]Ga-DOTA-EG2-IPLPPPRRPFFK, metal not drawn] ({DOTA-AEEA}-IPLPPPRRPFFK-OH)
OUTPUT_UNIT: %ID/g
tissue uptake at 1 h: 0.28

Numbers sourced from paper PMC7795354.
